# STUDY TARGET: purified human, His-tagged PRC2 complex (Homo sapiens (Human), UniProt O75530)
# Sequence (O75530 whole entry): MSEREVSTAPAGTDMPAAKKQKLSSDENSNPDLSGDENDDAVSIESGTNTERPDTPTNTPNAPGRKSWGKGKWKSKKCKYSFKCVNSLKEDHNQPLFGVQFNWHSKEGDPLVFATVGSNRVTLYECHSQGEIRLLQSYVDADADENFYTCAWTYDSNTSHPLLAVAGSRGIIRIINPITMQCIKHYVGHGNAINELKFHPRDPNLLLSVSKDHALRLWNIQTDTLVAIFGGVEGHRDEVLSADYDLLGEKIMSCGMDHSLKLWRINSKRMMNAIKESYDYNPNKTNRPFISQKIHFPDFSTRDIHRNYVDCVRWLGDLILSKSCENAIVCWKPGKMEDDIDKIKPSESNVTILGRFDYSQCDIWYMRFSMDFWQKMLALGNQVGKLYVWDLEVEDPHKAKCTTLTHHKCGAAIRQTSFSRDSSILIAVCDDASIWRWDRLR
# Sequence (Q15910 whole entry partner): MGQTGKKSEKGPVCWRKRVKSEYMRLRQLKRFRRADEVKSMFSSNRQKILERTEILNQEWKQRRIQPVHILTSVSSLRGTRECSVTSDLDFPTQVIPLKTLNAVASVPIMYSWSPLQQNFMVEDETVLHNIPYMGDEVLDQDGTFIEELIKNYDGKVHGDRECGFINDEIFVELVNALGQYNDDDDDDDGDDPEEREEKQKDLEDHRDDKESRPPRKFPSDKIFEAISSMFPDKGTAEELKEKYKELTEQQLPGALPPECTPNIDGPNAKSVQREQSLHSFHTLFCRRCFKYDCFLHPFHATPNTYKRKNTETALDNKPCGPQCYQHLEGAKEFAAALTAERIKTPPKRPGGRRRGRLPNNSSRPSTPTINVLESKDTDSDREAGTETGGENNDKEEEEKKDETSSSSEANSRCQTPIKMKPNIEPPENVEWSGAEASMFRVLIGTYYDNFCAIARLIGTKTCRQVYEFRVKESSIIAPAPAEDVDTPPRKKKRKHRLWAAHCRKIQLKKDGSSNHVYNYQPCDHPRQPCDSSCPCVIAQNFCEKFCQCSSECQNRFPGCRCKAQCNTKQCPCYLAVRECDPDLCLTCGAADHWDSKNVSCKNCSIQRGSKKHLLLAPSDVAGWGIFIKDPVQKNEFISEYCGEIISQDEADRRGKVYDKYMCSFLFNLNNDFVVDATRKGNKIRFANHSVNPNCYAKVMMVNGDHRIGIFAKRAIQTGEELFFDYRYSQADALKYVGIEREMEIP
# Sequence (Q15022 whole entry partner): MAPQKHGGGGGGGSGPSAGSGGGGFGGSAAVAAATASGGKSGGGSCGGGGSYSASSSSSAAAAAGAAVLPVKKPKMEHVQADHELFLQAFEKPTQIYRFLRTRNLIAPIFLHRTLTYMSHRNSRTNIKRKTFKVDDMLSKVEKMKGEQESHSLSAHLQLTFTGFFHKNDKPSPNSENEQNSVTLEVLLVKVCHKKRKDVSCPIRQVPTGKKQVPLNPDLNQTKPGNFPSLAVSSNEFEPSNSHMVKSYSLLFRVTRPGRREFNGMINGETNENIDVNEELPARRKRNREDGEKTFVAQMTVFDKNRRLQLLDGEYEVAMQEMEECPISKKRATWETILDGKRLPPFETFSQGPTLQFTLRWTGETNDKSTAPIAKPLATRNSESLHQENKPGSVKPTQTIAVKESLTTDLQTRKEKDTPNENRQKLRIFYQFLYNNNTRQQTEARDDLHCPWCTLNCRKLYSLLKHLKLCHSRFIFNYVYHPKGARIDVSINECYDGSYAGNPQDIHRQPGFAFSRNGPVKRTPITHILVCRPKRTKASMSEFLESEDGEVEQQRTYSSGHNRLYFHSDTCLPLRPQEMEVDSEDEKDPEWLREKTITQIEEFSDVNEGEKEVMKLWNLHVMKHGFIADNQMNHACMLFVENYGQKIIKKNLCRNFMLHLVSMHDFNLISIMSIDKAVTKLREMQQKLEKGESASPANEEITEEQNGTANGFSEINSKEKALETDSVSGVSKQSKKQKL
# Sequence (Q6ZN18 whole entry partner): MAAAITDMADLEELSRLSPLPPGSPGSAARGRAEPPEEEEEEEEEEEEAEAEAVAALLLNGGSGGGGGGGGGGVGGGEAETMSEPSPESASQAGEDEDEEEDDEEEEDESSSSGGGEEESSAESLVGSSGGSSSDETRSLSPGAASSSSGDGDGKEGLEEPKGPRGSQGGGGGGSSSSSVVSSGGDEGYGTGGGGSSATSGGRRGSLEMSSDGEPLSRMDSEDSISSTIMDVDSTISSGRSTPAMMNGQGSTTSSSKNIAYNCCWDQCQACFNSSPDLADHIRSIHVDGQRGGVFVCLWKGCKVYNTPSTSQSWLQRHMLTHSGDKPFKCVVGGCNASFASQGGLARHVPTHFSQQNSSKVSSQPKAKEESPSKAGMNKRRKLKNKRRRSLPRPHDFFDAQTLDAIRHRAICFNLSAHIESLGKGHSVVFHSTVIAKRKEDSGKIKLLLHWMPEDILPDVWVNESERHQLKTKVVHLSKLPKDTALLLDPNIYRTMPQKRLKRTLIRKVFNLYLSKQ
# Sequence (Q09028 whole entry partner): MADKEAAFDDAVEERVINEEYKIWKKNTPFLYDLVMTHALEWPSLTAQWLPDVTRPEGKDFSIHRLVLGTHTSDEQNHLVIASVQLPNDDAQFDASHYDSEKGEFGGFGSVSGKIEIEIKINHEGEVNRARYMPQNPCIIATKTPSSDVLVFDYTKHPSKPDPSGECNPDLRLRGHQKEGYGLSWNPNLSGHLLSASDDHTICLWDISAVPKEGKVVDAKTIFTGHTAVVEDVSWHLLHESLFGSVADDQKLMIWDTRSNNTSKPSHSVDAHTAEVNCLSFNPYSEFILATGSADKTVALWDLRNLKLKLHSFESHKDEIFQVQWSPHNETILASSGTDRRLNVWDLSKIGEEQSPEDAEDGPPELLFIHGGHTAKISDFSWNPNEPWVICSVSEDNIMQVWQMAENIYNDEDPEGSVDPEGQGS
# METHOD SUMMARY: Hot Spot HMT assay, inhibition of PRC2 enzymatic activity
# CONDITION INFO: 10 nM PRC2 complex, 1 μM 3H-SAM, core histone H3, 10-point dose-response
READOUT TYPE: IC50

CNC(=O)c1cn2c(NCc3c(F)ccc4c3CCO4)ncc(-c3cc(C)nn3C)c2n1 = < 100 nM

Answer with the recorded IC50 for the compound listed here: `Cc1n[nH]cc1-c1cnc(NCc2c(F)ccc3c2CCO3)n2cc(C#N)nc12`
< 100 nM

Answer with the recorded IC50 for the compound listed here: `CN(C)Cc1ncc(-c2cnc(NCc3c(F)ccc4c3CCO4)n3cc(C#N)nc23)cc1F`
< 100 nM

---

# STUDY TARGET: purified human, His-tagged PRC2 complex (Homo sapiens (Human), UniProt O75530)
# METHOD SUMMARY: Hot Spot HMT assay, inhibition of PRC2 enzymatic activity
# CONDITION INFO: 10 nM PRC2 complex, 1 μM 3H-SAM, core histone H3, 10-point dose-response
pIC50: −log10 of the molar value.
Overview of recorded pIC50 for various compounds

Here is how some compounds turned out for pIC50.
N#Cc1cn2c(NCc3c(F)ccc4c3CCO4)ncc(-c3cnccn3)c2n1 = > 7.00
N#Cc1cn2c(NCc3c(F)ccc4c3CCO4)ncc(-c3ccc(C4CC(=O)N4)cc3)c2n1 (centres unmarked) = > 7.00
N#Cc1cn2c(NCc3c(F)ccc4c3CCO4)ncc(-c3ccc4c(c3)CCNC4)c2n1 = 6.30 to 7.00
Cc1cc(-c2cnc(NCc3c(F)ccc4occc34)n3cc(C(N)=O)nc23)n(C)n1 = > 7.00
Cc1ncccc1-c1cnc(NCc2c(F)ccc3occc23)n2cc(C#N)nc12 = 6.30 to 7.00
CN(C)C(=O)c1ccc(-c2cnc(NCc3c(F)ccc4c3CCO4)n3cc(C#N)nc23)c(F)c1F = > 7.00

Answer with the recorded pIC50 for the compound listed here: `Cc1c(-c2cnc(NCc3c(F)ccc4c3CCO4)n3cc(C#N)nc23)cnn1C(C)C`
6.30 to 7.00

Answer with the recorded pIC50 for the compound listed here: `Cc1ncc(-c2cnc(NCc3c(F)ccc4c3CCO4)n3cc(C#N)nc23)c(C)n1`
> 7.00

---

# STUDY TARGET: purified human, His-tagged PRC2 complex (Homo sapiens (Human), UniProt O75530)
# METHOD SUMMARY: Hot Spot HMT assay, inhibition of PRC2 enzymatic activity
# CONDITION INFO: 10 nM PRC2 complex, 1 μM 3H-SAM, core histone H3, 10-point dose-response
pIC50: −log10 of the molar value.
READOUT TYPE: pIC50

COc1cncc(-c2cnc(NCc3c(F)ccc4c3CCO4)n3cc(C#N)nc23)c1 [Example 93] = 6.30 to 7.00
CN(C)CCOc1ccc(-c2cnc(NCc3c(F)ccc4c3CCO4)n3cc(C#N)nc23)cc1 [Example 189] = 6.30 to 7.00
N#Cc1cncc(-c2cnc(NCc3c(F)ccc4c3CCO4)n3cc(C#N)nc23)c1 [Example 95] = > 7.00
CN(C)Cc1ccc(-c2cnc(NCc3c(F)ccc4c3CCO4)n3cc(C#N)nc23)cc1F [Example 63] = > 7.00
N#Cc1cn2c(NCc3c(F)ccc4c3CCO4)ncc(-c3ccnn3CCO)c2n1 [Example 231] = 6.30 to 7.00

Answer with the recorded pIC50 for the compound listed here: [2H]C1Oc2ccc(F)c(C([2H])([2H])Nc3ncc(-c4ccc(CN(C)C)cc4C)c4nc(C#N)cn34)c2C1[2H] (centres unmarked) [Example 223]
> 7.00

Answer with the recorded pIC50 for the compound listed here: CC(O)Cn1cc(-c2cnc(NCc3c(F)ccc4c3CCO4)n3cc(C#N)nc23)cn1 (centres unmarked) [Example 179]
> 7.00

Answer with the recorded pIC50 for the compound listed here: CC(C)n1cc(-c2cnc(NCc3c(F)ccc4c3CCO4)n3cc(C#N)nc23)cn1 [Example 99]
> 7.00
